# Tested on: Eimeria maxima
# assay method text: Anticoccidial activity against Eimeria maxima in chickens assessed as reduction of oocysts at 12.5 ppm measured after 8 days by ExMAC assay relative to untreated control
# Format: functional
# Parameters: scale not given: the % may be the effect or the level left
Item-by-item account of Activity
Report only the number, with the unit % understood.

Sample answers from the record:
In [3]: df
Out[3]:
                                chem_smiles  reported_endpoint  unit  endpoint_value
0  Nc1nccc(-c2c(-c3ccc(F)cc3)nc3cc(C4CCN(CCO)CC4)ccn23)n1           Activity     %              80
1  Nc1nccc(-c2c(-c3ccc(F)cc3)nc3cc(C4CCN(CC5CC5)CC4)ccn23)n1           Activity     %              80
2  CN(C)CCc1ccn2c(-c3ccnc(N)n3)c(-c3ccc(F)cc3)nc2c1           Activity     %             100
3  CCN1CCC(c2ccn3c(-c4ccnc(N)n4)c(-c4ccc(F)cc4)nc3c2)CC1           Activity     %             100

Ask: State the recorded Activity for this entry: CN(C)c1ccn2c(-c3ccnc(N)n3)c(-c3ccc(F)cc3)nc2c1
Reply: 80

====

# Tested on: Eimeria maxima
# assay method text: Anticoccidial activity against Eimeria maxima in chickens assessed as reduction of oocysts at 25 ppm measured after 8 days by ExMAC assay relative to untreated control
# Format: functional
# Parameters: scale not given: the % may be the effect or the level left
reported endpoint: Activity

Sample answers from the record:
                                   compound  endpoint_value
0  Nc1nccc(-c2c(-c3ccc(F)cc3)nc3cc(C4CCN(CCCO)CC4)ccn23)n1            <50%
1  Nc1nccc(-c2c(-c3ccc(F)cc3)nc3cc(C4CCNCC4)ccn23)n1            100%
2  CN(C)CCCc1ccn2c(-c3ccnc(N)n3)c(-c3ccc(F)cc3)nc2c1            100%
3  CN(C)CC(C)(C)c1ccn2c(-c3ccnc(N)n3)c(-c3ccc(F)cc3)nc2c1            <50%
4  CN(CC#N)Cc1ccn2c(-c3ccnc(N)n3)c(-c3ccc(F)cc3)nc2c1            <50%
5  Nc1nccc(-c2c(-c3ccc(F)cc3)nc3cc(C4CCN(Cc5ccccc5)CC4)ccn23)n1            100%
6  CN(C)C(=N)c1ccn2c(-c3ccnc(N)n3)c(-c3ccc(F)cc3)nc2c1            <50%
7  CCN1CCC(c2ccn3c(-c4ccnc(N)n4)c(-c4ccc(F)cc4)nc3c2)CC1            100%
8  CN(C)CCc1ccn2c(-c3ccnc(N)n3)c(-c3ccc(F)cc3)nc2c1            100%
9  CC(C)(CN)c1ccn2c(-c3ccnc(N)n3)c(-c3ccc(F)cc3)nc2c1            <50%

Next:
Ask: State the recorded Activity for this entry: CN(C)c1ccn2c(-c3ccnc(N)n3)c(-c3ccc(F)cc3)nc2c1
Reply: 80%

====

# Test system: Eimeria maxima
# assay method text: Anticoccidial activity against Eimeria maxima in chickens assessed as reduction of oocysts at 25 ppm measured after 8 days by ExMAC assay relative to untreated control
# Type: functional
# Set-up: scale not given: the % may be the effect or the level left
Item-by-item account of Activity
Report only the number, with the unit % understood.

Ask: Report Activity for CCN(CC)Cc1ccn2c(-c3ccnc(N)n3)c(-c3ccc(F)cc3)nc2c1 tested on Eimeria maxima.
Reply: 80

Ask: Likewise for CN(C)CC(F)c1ccn2c(-c3ccnc(N)n3)c(-c3ccc(F)cc3)nc2c1 (stereo not drawn) ?
Reply: 100

Ask: Likewise for CN1CCN(c2ccn3c(-c4ccnc(N)n4)c(-c4ccc(F)cc4)nc3c2)CC1 ?
Reply: 100
